- testedOn: WT BTK protein (Homo sapiens, UniProt Q06187)
- Construct: measured for intracellular BTK protein levels by Western blotting; endogenous in cells; host or cells: TMD-8 or RAMOS cells
- Sequence (Q06187 whole entry): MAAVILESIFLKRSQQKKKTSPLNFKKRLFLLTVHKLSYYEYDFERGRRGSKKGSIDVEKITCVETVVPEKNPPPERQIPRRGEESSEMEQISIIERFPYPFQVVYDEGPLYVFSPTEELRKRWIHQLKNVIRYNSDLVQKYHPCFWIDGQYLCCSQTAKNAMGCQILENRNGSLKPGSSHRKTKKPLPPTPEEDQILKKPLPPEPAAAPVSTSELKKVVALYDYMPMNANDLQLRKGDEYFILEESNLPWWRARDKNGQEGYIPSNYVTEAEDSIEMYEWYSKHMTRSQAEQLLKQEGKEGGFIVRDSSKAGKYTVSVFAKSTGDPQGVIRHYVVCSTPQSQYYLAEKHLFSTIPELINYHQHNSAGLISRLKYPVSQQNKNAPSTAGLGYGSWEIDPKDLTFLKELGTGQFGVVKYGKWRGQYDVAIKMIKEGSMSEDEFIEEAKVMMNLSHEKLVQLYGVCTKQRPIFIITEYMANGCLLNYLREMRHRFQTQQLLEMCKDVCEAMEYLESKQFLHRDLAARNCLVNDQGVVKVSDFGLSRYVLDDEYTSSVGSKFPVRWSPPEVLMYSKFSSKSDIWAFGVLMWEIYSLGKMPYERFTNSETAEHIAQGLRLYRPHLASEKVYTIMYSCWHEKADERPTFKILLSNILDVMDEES
- assayExplanation: BTK protein degradation assay (Western blotting), WT BTK
- Assay type: cell-based
- testConditions: concentration range accounting for 50% degradation of WT BTK protein, TMD-8 or RAMOS cells, 24 hours
metric: DC50

# get_value(readout='DC50', item= Cc1cccc(C)c1Nc1nn(C)c2nc(Nc3ccc4c(c3)CN(C3CN(CC5CCN(c6ccc7c(c6)C(=O)N(C6CCC(=O)NC6=O)C7=O)CC5)C3)CC4)ncc12 (stereo not drawn) [Compound 149] )
0.1 to 10 nM

Request the reported DC50 associated with Cc1cccc(C)c1Nc1nn(C)c2nc(Nc3ccc4c(c3)CN(CC3CCN(C(=O)Cc5cccc(NC6=CC(=O)N(C7CCC(=O)NC7=O)C6=O)c5)CC3)CC4)ncc12 (stereo not drawn) [Compound 193]
0.1 to 10 nM

Query (compound): Cc1cccc(C)c1Nc1nn(C)c2nc(Nc3ccc4c(c3)CN(CC3CCN(c5cc6c(cc5F)C(=O)N(C5CCC(=O)NC5=O)C6)CC3)CC4)ncc12 (stereo not drawn) [Compound 220] ; field requested: DC50
0.1 to 10 nM
